# Test system: MS2 coat protein
# protocol description: apparent KD of MS2 coat protein; designed switch direction (-1 OFF switch, 1 ON switch): -1; higher = weaker reporter binding
# protocol conditions: input ligand: none
measured metric: apparent KD of MS2 coat protein

Look over these answered cases.
GCCGAAAGUGUGAGGAUAUACCUAUGGAUACAUAGGUAGAAGGCACAUGAGGAUCACCCAUGUUCCUAAUCGGC [Eli bmx4 4.18] (Eterna round: R97, puzzle: Brourd's mod of Exclusion 4) :: 103 nM
UAGCAUUGCCAAAGGUAGUGCAAAACAUGAGGAUCACCCAUGUAGGAUAUGGUAGGCAAAGCUUACCAGAAGGACAUGAUAAUU [Mat - Exclusion NG 3 - Mod of JL - D17] (Eterna round: R96, puzzle: Exclusion NG 3) :: 51.5 nM
AAACACGGAGGAUAUACAGGUUCAGGAAACCGAACCGGCUGACAUGAGGAUCACCCAUGUAGAAGGCCGAAAUA [EX2 A.23] (Eterna round: R97, puzzle: Exclusion 2) :: 20.9 nM
GGUUGGCGAGGAUAUACAUGAGGAUCACCCAUGUGAUCCUAAGGCUGAUCAAGCCUAUGUAGAAGGCGCAAAUC [salish99_ex3_r4_009] (Eterna round: R97, puzzle: Exclusion 3) :: 260 nM
GUAGAGUCAGGAUAUACGAGAUCGAUAGAUCGGCGAUCCCUACAUGAGGAUCACCCAUGUAGAAGGGACUCUAC [Mat - Exclusion 2 - Eli Mod - D12] (Eterna round: R97, puzzle: Exclusion 2) :: 15.6 nM

Asked: # apparent KD of MS2 coat protein lookup, item AGAAACUCAAGAGGAUAUCACAUGAGGAUCACCCAUGUAUAGCGCGCUAUGCUAGUCCUCGUAUUUGAGAAGGUUUGAAAUAAG [Mat - Exclusion NG 2 - Mod of JL - D79] (Eterna round: R96, puzzle: Exclusion NG 2)
Given back: 18.3 nM

Asked: Thanks! And CUUGUUUAUGUAGGAUAUGCCUGGCGUGCCUUUGCAGAAGGACAUGAGGAUCACCCAUGUAACAUGAGGCUCACCCAUGUCGCC [salish99_ExNG1_r04_107] (Eterna round: R96, puzzle: Exclusion NG 1) ?
Given back: 153 nM

###

Overview of recorded apparent KD of MS2 coat protein for various sequences
# Tested on: MS2 coat protein
# protocol description: apparent KD of MS2 coat protein, switch OFF state (with FMN for OFF switches, without FMN for ON switches); designed switch direction (-1 OFF switch, 1 ON switch): -1; higher = weaker reporter binding
# protocol conditions: FMN input: 0 or 200 uM; Eterna round: R93 (includes R88 designs)
State the answer as a number, implicitly in nM.

AAAAAACAUGAGGAUCACCCAUGUGAGGAUAUUGGUAUUCAAGAAACCCUCUUAAUAGCGAGAAGGCGCAAAAA [Brourd 613 Mod 18 - Jieux - Exclusion 1] :: 19.8

Asked: # apparent KD of MS2 coat protein lookup, item CAGUACUGAGGAUAUACAUGAGGAUCACCCAUGUGUUAAAGCUAGGAAACUAGCAAAUGUAGAAGGCAGUACUG [Ex3: 817]
Given back: 47.9

Asked: Thanks! And CGUUGGCGAGGAUAUACAUGAGGAUCACCCAUGUGAGAGAAAAAAGUGAGAAAGAAAAGUAGAAGGCGCUGACA [salish99-ex3-11] ?
Given back: 264

Asked: Thanks! And AAGAACGUAGGAUAUACAAAAUAAAAGAAAAGAAAGAAAGAACAUGAGGAUCACCCAUGUAGAAGGGCGAAGAA [Sekhemresewadjtawy Sobekhotep III] ?
Given back: 39.6

Asked: Thanks! And UCCGCACAUGAGGAUCACCCAUGUCAGGAUAUACAAGAAAAUCAGGCUAAUGCCUGAAGUAGAAGGGACGAGGA [Armaingean] ?
Given back: 16

Asked: Thanks! And AAGGGACAUGAGGAUCACCCAUGUGAGGAUAUGAUGCGAAUAAAGAAAGAAUAAAGCAUCAGAAGGCACACCAA [Mat - Exclusion 1 - Eli mod - D66] ?
Given back: 109

Asked: Thanks! And AAAUAGCAAGGAUAUACAUGAGGAUCACCCAUGUGAACCAGGUAUGGAAUAGAAUAGAGUAGAAGGUGCAAAUA [Mod 3 of Ex 3 Tesla 8 - Jieux - Exclusion 3] ?
Given back: 37.8

Asked: Thanks! And GAAAAGUCAGGAUAUAUAGGAAAAAUAAAAAAAAUAAAACUAUAGAAGGGACAUGAGGAUCACCCAUGUUAAAG [Mat - Exclusion 4 - Mayanna - D132] ?
Given back: 25.5

Asked: Thanks! And AAAAAUGGAGGAUAUACGAACAUGUCAAAAGACGUGAAGGGACAUGAGGAUCACCCAUGUAGAAGGCUAAAAAA [JL Stem Breaker 3] ?
Given back: 40.3

Asked: Thanks! And AACAUGUGAGGAUAUAAAAGAAAAGAAAAGAAAGAAAAGAAUUAGAAGGCACAUGAGGAUCACCCAUGUAAGAA [EteRNA is fun!] ?
Given back: 31.9

Asked: Thanks! And AAAAAACAUGAGGAUCACCCAUGUGAGGAUAUGUACGAAAUAAAAUAAAAAUAAAAGUACAGAAGGCACAAAAA [Mat - Exclusion 1 - Eli mod - D4] ?
Given back: 46.6

Asked: Thanks! And AGCAAACAUGAGGAUCACCCAUGUCAGGAUAUGAACGAAAUAAAUAAAAAAUAAAAGUUCAGAAGGGACGAGCA [Mat - Exclusion 1 - Eli mod - D25] ?
Given back: 42.9
